These data points were gathered from the MegaScale stability set (Tsuboyama et al. 2023).

B1: r11_951_TrROS_Hall (parent)
chain: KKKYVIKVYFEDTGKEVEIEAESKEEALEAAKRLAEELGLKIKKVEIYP

Variants of: B1
Run description: folding stability dG (cDNA display proteolysis); higher = more stable
Assay context: PBS, room temperature
Reported values of folding stability dG for individual entries
Readout label: folding stability dG (kcal/mol)

macromolecule_sequence="KKKYVIKVYFEDRGKEVEIEAESKEEALEAAKRLAEELGLKIKKVEIYP [T13R]" value=4.66
macromolecule_sequence="KKKYVIKVYFEDTGKEREIEAESKEEALEAAKRLAEELGLKIKKVEIYP [V17R]" value=4.29
macromolecule_sequence="KKKYVIKVYFEDTGKEVEIEAESKEEALEAAKRLAEELGCKIKKVEIYP [L40C]" value=3.95
macromolecule_sequence="KDKYVIKVYFEDTGKEVEIEAESKEEALEAAKRLAEELGLKIKKVEIYP [K2D]" value=3.85
macromolecule_sequence="KKKYVIKVYFEDTGKEVEIEAESKEEALEAAKRLAEELGLKIIKVEIYP [K43I]" value=4.43
macromolecule_sequence="KKKYVIKVYFADTGKEVEIEAESKEEALEAAKRLAEELGLKIKKVEIYP [E11A]" value=4.58
macromolecule_sequence="KKKYVIKVYFEDTGKEVEIEQESKEEALEAAKRLAEELGLKIKKVEIYP [A21Q]" value=3.77
macromolecule_sequence="KKKYRIKVYFEDTGKEVEIEAESKEEALEAAKRLAEELGLKIKKVEIYP [V5R]" value=4.66
macromolecule_sequence="KKKYVIKVYFEDTGKEVEIEAESKEEALEAAKRLAEELGLKIKKDEIYP [V45D]" value=2.62
macromolecule_sequence="KKKYVIKVYFEDTFKEVEIEAESKEEALEAAKRLAEELGLKIKKVEIYP [G14F]" value=4.73
macromolecule_sequence="KKKYVIKVYFEDTGKEVEIEAESKEEAQEAAKRLAEELGLKIKKVEIYP [L28Q]" value=4.31
macromolecule_sequence="KKKGVIKVYFEDTGKEVEIEAESKEEALEAAKRLAEELGLKIKKVEIYP [Y4G]" value=2.47
macromolecule_sequence="KKKYVIKVYFEDTGKEVEIEAESKEEALEAAKRLAEELGLKIKKVSIYP [E46S]" value=4.33
macromolecule_sequence="KKKAVIKVYFEDTGKEVEIEAESKEEALEAAKRLAEELGLKIKKVEIYP [Y4A]" value=3.08
macromolecule_sequence="KKKYVIKVYFEDTGKEVEIEAESKEEALEAAKRLAEELGLDIKKVEIYP [K41D]" value=4
macromolecule_sequence="KKKYVIKVYFEDTGKEVEIEACSKEEALEAAKRLAEELGLKIKKVEIYP [E22C]" value=4.52
